method: Toxicity in iv dosed Swiss-Webster mouse
Type: organism-based
condition.info: in vivo
# Lookup of reported LD50 keyed by entry
Number only, in mg/kg; omit the unit.

molecule	LD50 [mg/kg]
CCN1C[C@]2(COC(=O)c3ccccc3N3C(=O)CC(C)C3=O)CC[C@H](OC)[C@]34C1[C@](O)([C@@H](OC)[C@H]23)[C@@]1(O)C[C@H](OC)[C@H]2C[C@@H]4[C@@H]1C2=O (stereo partly drawn)	57

We now examine a further molecule.
The molecule CCN1C[C@]2(COC(=O)c3ccccc3N3C(=O)CC(C)C3=O)CC[C@H](OC)[C@]34C1[C@](O)([C@@H](OC)[C@H]23)[C@@]1(O)C[C@H](OC)[C@H]2C[C@@H]4[C@@H]1[C@H]2O (stereo partly drawn) showed LD50 equal to 4
